Ref: PubChem BioAssay (Tox21)

test: qHTS assay to identify small molecule agonists of the endoplasmic reticulum stress response signaling pathway (AID 1159516); details: ESRE-bla HeLa, ER stress beta-lactamase reporter, 5 h; series mostly up to 61 µM
Inconclusive results are not listed. The source made the active and inactive calls. Calls come from the whole dose curve; as a rule, active = well fitted activation curve with a large enough effect in the signal ratio in the repeat runs (not every such curve was filed as active); inconclusive = weak or mixed curves, or effect the other way; inactive = flat fitted curve, though single readings scatter; the % refers to the signal ratio.
Property name: activation

Compound | Property name | Result
C#C[C@]1(O)CC[C@H]2[C@@H]3CCc4cc(OC5CCCC5)ccc4[C@H]3CC[C@@]21C | activation | inactive
CCCCCCCCCCCCCCOS(=O)(=O)O | activation | inactive
CCOC(=O)COC(=O)c1cc(Oc2ccc(C(F)(F)F)cc2Cl)ccc1[N+](=O)[O-] | activation | inactive
CC(C)O.CC(C)O.CCOC(=O)/C=C(\C)O.CCOC(=O)/C=C(\C)O.[Ti] | activation | inactive
c1ccc(CNCCNCc2ccccc2)cc1 | activation | inactive
CCNc1cc(O)ccc1C | activation | inactive
O=C(O)c1nc(Cl)c(Cl)c(Cl)c1Cl | activation | inactive
CCc1cc(C2=C(C(=O)O)N(c3ccccc3C(F)(F)F)S(=O)(=O)c3ccccc32)cc2c1OCO2 | activation | inactive
COCC(C)OC(C)=O (stereo not given) | activation | inactive
CCCCCCCCCCCCCCCCCCOS(=O)(=O)O | activation | inactive
C=CC(=O)OCCOc1ccccc1 | activation | inactive
CC(C)Nc1ccc(NC(C)C)c2c1C(=O)c1ccccc1C2=O | activation | inactive
CC(C)(C)OCC1CO1 (stereo not given) | activation | inactive
COC(C)(C)CCO | activation | inactive
CC(CSC(=O)c1ccccc1)C(=O)N1C[C@@H](Sc2ccccc2)C[C@H]1C(=O)O (stereo not given in full) | activation | inactive
CCCCCCCCCCCC(=O)OC[C@@H](O)[C@H]1OC[C@H](OCCO)[C@H]1OCCO | activation | inactive
CC1=CC=C(C(C)C)CC1 | activation | inactive
Cc1cc(N)c2cc(NC(=O)Nc3ccc4nc(C)cc(N)c4c3)ccc2n1 | activation | inactive
c1ccc(C(O[C@H]2CCCN(CCc3ccc4c(c3)OCO4)C2)c2ccccc2)cc1 | activation | inactive
CCCC(=O)Nc1ccc(O)c(C(C)=O)c1 | activation | inactive
CN(C)C(=O)NC1(c2ccccc2)CCN(CC[C@@]2(c3ccc(F)c(F)c3)CN(C(=O)c3ccccc3)CCO2)CC1 | activation | inactive
O=C(OCCCCCCOC(=O)c1ccccc1)c1ccccc1 | activation | inactive
CCCCCCCCCc1ccc(OCCOCCO)cc1 | activation | inactive
OC(CN1CCC(Cc2ccc(F)cc2)CC1)c1ccc(Cl)cc1 (stereo not given) | activation | inactive
CC(COCCO)OCCO (stereo not given) | activation | inactive
